measurementNotes: Volume of fluid required to achieve complete dissolution of the dose
Type: physicochemical
assayContext: for the dose listed in Table 1
Decision: YDISSOLUTION (volume of fluid required to achieve complete dissolution) >= 4 L yields 1, all other cases yield 0.

# molecule, classAssignment
records = [
    ("C[C@H]1O[C@@H](O[C@H]2[C@@H](O)C[C@H](O[C@H]3[C@@H](O)C[C@H](O[C@H]4CC[C@@]5(C)[C@H](CC[C@@H]6[C@@H]5C[C@@H](O)[C@]5(C)[C@@H](C7=CC(=O)OC7)CC[C@]65O)C4)O[C@@H]3C)O[C@@H]2C)C[C@H](O)[C@@H]1O", 0),
    ("CCC(C)n1ncn(-c2ccc(N3CCN(c4ccc(OCC5COC(Cn6cncn6)(c6ccc(Cl)cc6Cl)O5)cc4)CC3)cc2)c1=O (centres unmarked)", 1),
    ("COC1=CC(=O)C[C@@H](C)[C@]12Oc1c(Cl)c(OC)cc(OC)c1C2=O", 1),
    ("CN1C(C(=O)Nc2ccccn2)=C(O)c2ccccc2S1(=O)=O", 1),
    ("OC(Cn1cncn1)(Cn1cncn1)c1ccc(F)cc1F", 0),
    ("NC(=O)N1c2ccccc2C=Cc2ccccc21 [Carbamazepine]", 1),
    ("O=C(O)c1cc(-c2ccc(F)cc2F)ccc1O", 0),
    ("CC(C)(C)NC(=O)[C@H]1CC[C@H]2[C@@H]3CC[C@H]4NC(=O)C=C[C@]4(C)[C@H]3CC[C@]12C [Finasteride]", 1),
]
